# assay.comment: Lethality of MPTP regimens in mice
# Format: in vivo
# run.parameters: mouse, in vivo, ip; 20 mg/kg/h x 4 regimen; read-out: mice that die
# Procedure: All other studies are performed in C57 black mice. Approximately 20% of the mice die after the 20 mg/kg/h x 4 regimen. […]

smiles.notation	mortality
CN1CC=C(c2ccccc2)CC1	~20%
